- Assay Remarks: Solubility of neat fluorescent dye in water-based PVA/PAA binder solution
- Experimental Conditions: 0.5 wt % fluorescent dye in binder solution (PVA, PAA, ethylene glycol, ethylene glycol butyl ether, water), stirred at 50-70° C.

Smiles Input	Solubility at 0.5 wt %
CCCN(CCO)c1nc(Nc2ccccc2)nc(Nc2ccc(/C=C/c3ccc(Nc4nc(Nc5ccccc5)nc(N(CCO)CCO)n4)cc3S(=O)(=O)[O-])c(S(=O)(=O)[O-])c2)n1.[Na+].[Na+]	Partially soluble −
O=S(=O)([O-])c1cc(Nc2nc(CCO)nc(Nc3ccccc3)n2)ccc1/C=C/c1ccc(Nc2nc(NCO)nc(Nc3ccccc3)n2)cc1S(=O)(=O)[O-].[Na+].[Na+]	Partially soluble −
CCCN(CCC)c1nc(Nc2ccccc2)nc(Nc2ccc(/C=C/c3ccc(Cc4nc(Cc5ccccc5)nc(N(OCC)OCC)n4)cc3S(=O)(=O)[O-])c(S(=O)(=O)[O-])c2)n1.[Na+].[Na+]	Partially soluble −
